The compounds listed here are annotated with their GI50.
- Tested on: SK-MEL-5
- assay details: NCI tumour cell line growth inhibition, 48 h
Activity calls are given as the source filed them. Cut-off read from the data, not from the text of the source: active = GI50 up to about 1.1 µM and inactive = higher.

Solved entries:
CCCCCCCCCCCCCCCCCc1cc(Cl)nc(Cl)n1 ... > 100 µM (inactive)
O=C(c1ccc([N+](=O)[O-])cc1)N1CCCC1 ... > 100 µM (inactive)
CN(CCCNC(=O)c1nn(-c2ccccc2)c2c1Cc1ccccc1-2)CCCNC(=O)c1nn(-c2ccccc2)c2c1Cc1ccccc1-2 ... 1.57 µM (inactive)
C[C@@H]1CC[C@@]2(NC1)O[C@H]1C[C@H]3[C@@H]4CC[C@H]5C[C@@H](O)CC[C@]5(C)[C@H]4CC[C@]3(C)[C@H]1[C@@H]2C ... 42.1 µM (inactive)

Fill in the blank: the reported GI50 of COc1nc2c(nc(N)n2C2OCC(O)C(O)C2O)c(=O)n1C (centres undefined) is ____.
> 100 µM (inactive)

Another: "O=C1NC2(CCN(CCCC3(c4ccc(F)cc4)OCCO3)CC2)Oc2ccccc21"
69.5 µM (inactive)

What do you have for "Clc1ccc(/C=C/c2nc(Cl)c(-c3ccc(Cl)cc3)c(Cl)n2)cc1" ?
38.8 µM (inactive)

And what about the compound "Brc1ccc(/N=N/N2CCCC2)cc1" ?
27.1 µM (inactive)

And the next one, "Cc1ccc(S(=O)(=O)c2c(O)c3ccc(O)c(C)c3oc2=O)cc1" ?
> 100 µM (inactive)
